Data credit: PubChem BioAssay

experiment: E. coli acrAB mutant growth effects, primary screen, E. coli filamentation inducers, strain DRC39, OD650, 24 h (AID 1178); conditions: higher = more signal, called active from +8 up or from −8 down;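 also: growth measured as culture turbidity by optical density at 650 nm; test concentration not given here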
Property Label: z-score
One number for each entry.

The cases that follow already have their z-score on record.
Molecule | z-score
CCN1C(=O)[C@H]2[C@H]3[C@H](O)[C@H](O)CC(=NO[C@H](C)c4cn([C@H](CO)Cc5ccccc5)nn4)[C@@H]3CC[C@H]2C1=O | 1.44
COC(=O)[C@H](C)NC(=O)CCC1CC(OC(=O)NCc2ccc3c(c2)OCO3)CC2(CCCC(COC(=O)NCc3ccccc3)O2)O1 (some centres undefined) | 1.03

Hey, can you go through the list below and give me z-score for every item?
1. CO[C@H]1COC(=O)[C@H](CCSC)NC(=O)CC=C[C@@H](C)[C@H](OC)COC(=O)[C@@H](OCc2ccccc2)C=C[C@@H]1C
2. CCN1C(=O)[C@H]2[C@@H]3C(=CC[C@H]2C1=O)C(=O)[C@H]1O[C@H]1[C@H]3O

**A:**
0.345
-0.615

---

target: Carbonic anhydrase 2 (Homo sapiens) (UniProt P00918); assay: CAII small-molecule binders, profiling panel, biochemical, small-molecule microarray, Alexa647-labelled CAII (AID 1122); conditions: CAII-A647 binding fluorescence, higher = more signal
Param threshold (-0.06) applies to composite z-score; output t when value >= threshold, f when value < threshold.

Before answering, review these 3 worked examples.
Compound | Measured Target | Classification
COc1ccc(COC(=O)NN=C2C[C@@H](O)[C@@H](O)[C@@H]3[C@@H]4C(=O)N(C[C@@H]5CCCO5)C(=O)[C@@H]4CC[C@H]23)cc1 | Carbonic anhydrase 2 (Homo sapiens) (UniProt P00918) | f
O=C1[C@H]2CCn3c(=O)n(-c4ccccc4)c(=O)n3[C@H]2[C@H](O)[C@@H]2O[C@H]12 | Carbonic anhydrase 2 (Homo sapiens) (UniProt P00918) | t
CC(=O)OC[C@H]1O[C@H](CC=NOC(C)CN2CCCc3nc(C)c(C)cc32)C=C[C@@H]1OC(C)=O (stereo partly specified) | Carbonic anhydrase 2 (Homo sapiens) (UniProt P00918) | t

**Q:** Reported composite z-score at or above -0.06? CCOC(=O)CCN1C(=O)[C@H]2[C@H]3[C@H](O)[C@H](O)CC(=NOCC(C)C)[C@@H]3CC[C@H]2C1=O
**A:** f

**Q:** Reported composite z-score at or above -0.06? C=CCOCC1CN2[C@@H](CC[C@@H](C)[C@@H]2c2ccc(Br)cc2)C(=O)O1 (stereo partly specified)
**A:** f

**Q:** Reported composite z-score at or above -0.06? CCN1C(=O)[C@H]2[C@H]3[C@H](O)[C@H](O)CC(=NNC(=O)OCc4ccccc4)[C@H]3CC[C@H]2C1=O
**A:** t

**Q:** Reported composite z-score at or above -0.06? O=C1C[C@@H](O)[C@@H](O)[C@@H]2[C@@H]3C(=O)N(Cc4ccccc4)C(=O)[C@@H]3CC[C@H]12
**A:** t

**Q:** Reported composite z-score at or above -0.06? CCC1=NOC(CCC2CC(OC(=O)NCc3cccc4c3OCO4)CC3(CCCC(COC(=O)NCCc4ccc(Cl)cc4)O3)O2)C1 (stereo unspecified)
**A:** t

**Q:** Reported composite z-score at or above -0.06? COC(=O)C(C(=O)OC)C1CCCC(=O)C1 (stereo unspecified)
**A:** t

**Q:** Reported composite z-score at or above -0.06? CCOC(=O)CCN1C(=O)[C@H]2[C@@H]3C(=CC[C@H]2C1=O)C(=O)[C@H]1O[C@H]1[C@H]3O
**A:** t

**Q:** Reported composite z-score at or above -0.06? CON=C(C)CCN1CCc2nc(-c3ccccc3)c(-c3ccccc3)cc2C1
**A:** f

**Q:** Reported composite z-score at or above -0.06? CC(=O)OC[C@H]1O[C@H](CC=NO[C@H](C)c2cn([C@@H]3COC[C@H]3O)nn2)C=C[C@@H]1OC(C)=O
**A:** t

**Q:** Reported composite z-score at or above -0.06? CCN1C(=O)[C@H]2[C@@H]3C(=CC[C@H]2C1=O)C(=O)[C@H]1O[C@H]1[C@H]3O
**A:** f

**Q:** Reported composite z-score at or above -0.06? CC(C)[C@@H](OCc1ccccc1)[C@H](C)C=NO[C@@H](C)c1cn([C@H](CO)Cc2ccccc2)nn1
**A:** f

**Q:** Reported composite z-score at or above -0.06? CCOC(=O)CCN1C(=O)[C@H]2[C@H]3[C@H](O)[C@H](O)CC(=NNC(=O)OCc4ccccc4)[C@H]3CC[C@H]2C1=O
**A:** f

**Q:** Reported composite z-score at or above -0.06? O=C1C2=CC[C@H]3C(=O)N(C4CCCCC4)C(=O)[C@H]3[C@H]2[C@H](O)[C@@H]2O[C@H]12
**A:** t
